PROPERTY_NAME: IC50 (nM)
Provide the reading as a plain figure in nM.

Please look at `CC(=O)Nc1sc2c(c1Cc1nnc(SCC#N)n1NC(=O)c1ccccc1)CCCC2` and tell me its recorded IC50 on Cyclin-dependent kinase 5/CDK5 activator 1 (Homo sapiens, UniProt Q00535).
Sequence (Q00535 whole entry): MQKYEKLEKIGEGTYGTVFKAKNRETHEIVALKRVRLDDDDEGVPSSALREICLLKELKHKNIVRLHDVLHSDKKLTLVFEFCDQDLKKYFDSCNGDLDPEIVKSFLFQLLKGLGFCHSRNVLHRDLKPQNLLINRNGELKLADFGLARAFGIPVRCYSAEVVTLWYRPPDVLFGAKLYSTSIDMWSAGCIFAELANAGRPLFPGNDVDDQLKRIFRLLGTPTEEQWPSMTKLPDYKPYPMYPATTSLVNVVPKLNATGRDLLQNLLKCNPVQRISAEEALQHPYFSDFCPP
Sequence (Q15078 whole entry, further chain): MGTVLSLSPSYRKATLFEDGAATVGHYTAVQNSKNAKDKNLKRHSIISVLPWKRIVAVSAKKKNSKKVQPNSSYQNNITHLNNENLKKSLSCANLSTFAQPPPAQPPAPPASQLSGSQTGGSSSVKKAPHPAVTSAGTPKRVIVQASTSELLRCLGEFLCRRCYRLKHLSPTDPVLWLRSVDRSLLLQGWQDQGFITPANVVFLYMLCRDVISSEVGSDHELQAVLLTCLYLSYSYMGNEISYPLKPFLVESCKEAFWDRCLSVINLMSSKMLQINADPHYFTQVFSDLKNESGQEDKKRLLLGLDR
393

Please look at `CC(=O)Nc1sc2c(c1Cc1nnc(S)n1NC(C)=O)CCCC2` and tell me its recorded IC50 on Cyclin-dependent kinase 5/CDK5 activator 1 (Homo sapiens, UniProt Q00535).
584

Please look at `CC(=O)Nc1sc2c(c1Cc1nnc(SCc3nnc(S)n3N)n1NC(=O)c1ccc(Cl)cc1)CCCC2` and tell me its recorded IC50 on Cyclin-dependent kinase 5/CDK5 activator 1 (Homo sapiens, UniProt Q00535).
6380

Please look at `N#CCSc1nnc(Cc2c(NCCC(=O)O)sc3c2CCCC3)n1NC(=O)c1ccccc1` and tell me its recorded IC50 on Cyclin-dependent kinase 5/CDK5 activator 1 (Homo sapiens, UniProt Q00535).
4870

Please look at `CC(=O)Nc1sc2c(c1Cc1nnc(SCC(=O)N/N=C/c3ccccc3)n1NC(C)=O)CCCC2` and tell me its recorded IC50 on Cyclin-dependent kinase 5/CDK5 activator 1 (Homo sapiens, UniProt Q00535).
453

---

PROPERTY_NAME: pIC50
The meaning of pIC50 here: minus log10 of the concentration in molar units.

Please look at `CC(=O)Nn1c(Cc2c(NC(=O)c3ccccc3)sc3c2CCCC3)nnc1SCC(=O)N/N=C/c1ccccc1` and tell me its recorded pIC50 on Cyclin-dependent kinase 5/CDK5 activator 1 (Homo sapiens, UniProt Q00535).
6.33

Please look at `CC(=O)Nn1c(Cc2c(NC(=O)CCl)sc3c2CCCC3)nnc1SCC(=O)N/N=C/c1ccccc1` and tell me its recorded pIC50 on Cyclin-dependent kinase 5/CDK5 activator 1 (Homo sapiens, UniProt Q00535).
6.47

Please look at `CC(=O)Nn1c(Cc2c(NCCC(=O)O)sc3c2CCCC3)nnc1SCC(=O)NNC(=O)c1ccccc1` and tell me its recorded pIC50 on Cyclin-dependent kinase 5/CDK5 activator 1 (Homo sapiens, UniProt Q00535).
6.32

Please look at `NNC(=O)CSc1nnc(Cc2c(NC(=O)CCl)sc3c2CCCC3)n1NC(=O)c1ccc(Cl)cc1` and tell me its recorded pIC50 on Cyclin-dependent kinase 5/CDK5 activator 1 (Homo sapiens, UniProt Q00535).
7.41

Please look at `O=C(O)CCNc1sc2c(c1Cc1nnc(SCC(=O)NNC(=O)c3ccccc3)n1NC(=O)c1ccc(Cl)cc1)CCCC2` and tell me its recorded pIC50 on Cyclin-dependent kinase 5/CDK5 activator 1 (Homo sapiens, UniProt Q00535).
6.57

Please look at `COC(=O)CSc1nnc(Cc2c(NC(=O)c3ccccc3)sc3c2CCCC3)n1NC(C)=O` and tell me its recorded pIC50 on Cyclin-dependent kinase 5/CDK5 activator 1 (Homo sapiens, UniProt Q00535).
6.25

Please look at `O=C(O)CCNc1sc2c(c1Cc1nnc(SCSc3nnc(Cc4c(NCCC(=O)O)sc5c4CCCC5)n3NC(=O)c3ccc(Cl)cc3)n1NC(=O)c1ccc(Cl)cc1)CCCC2` and tell me its recorded pIC50 on Cyclin-dependent kinase 5/CDK5 activator 1 (Homo sapiens, UniProt Q00535).
6.79

Please look at `COC(=O)CSc1nnc(Cc2c(NC(=O)CCl)sc3c2CCCC3)n1NC(=O)c1ccccc1` and tell me its recorded pIC50 on Cyclin-dependent kinase 5/CDK5 activator 1 (Homo sapiens, UniProt Q00535).
6.17

Please look at `NNC(=O)CSc1nnc(Cc2c(NCCC(=O)O)sc3c2CCCC3)n1NC(=O)c1ccccc1` and tell me its recorded pIC50 on Cyclin-dependent kinase 5/CDK5 activator 1 (Homo sapiens, UniProt Q00535).
6.34

Please look at `O=C(CSc1nnc(Cc2c(NC(=O)c3ccccc3)sc3c2CCCC3)n1NC(=O)c1ccccc1)N/N=C/c1ccccc1` and tell me its recorded pIC50 on Cyclin-dependent kinase 5/CDK5 activator 1 (Homo sapiens, UniProt Q00535).
6.36

Please look at `CC(=O)Nn1c(Cc2c(NCCC(=O)O)sc3c2CCCC3)nnc1SCc1nnc(S)n1N` and tell me its recorded pIC50 on Cyclin-dependent kinase 5/CDK5 activator 1 (Homo sapiens, UniProt Q00535).
5.21

Please look at `CC(=O)NNC(=O)CSc1nnc(Cc2c(NC(=O)c3ccccc3)sc3c2CCCC3)n1NC(C)=O` and tell me its recorded pIC50 on Cyclin-dependent kinase 5/CDK5 activator 1 (Homo sapiens, UniProt Q00535).
6.19

Please look at `CC(=O)Nc1sc2c(c1Cc1nnc(SCC(=O)N/N=C/c3ccccc3)n1NC(=O)c1ccc(Cl)cc1)CCCC2` and tell me its recorded pIC50 on Cyclin-dependent kinase 5/CDK5 activator 1 (Homo sapiens, UniProt Q00535).
6.67

Please look at `CC(=O)Nn1c(Cc2c(NCCC(=O)O)sc3c2CCCC3)nnc1SCC(=O)NN` and tell me its recorded pIC50 on Cyclin-dependent kinase 5/CDK5 activator 1 (Homo sapiens, UniProt Q00535).
6.03

Please look at `O=C(O)CCNc1sc2c(c1Cc1nnc(SCC(=O)N/N=C/c3ccccc3)n1NC(=O)c1ccccc1)CCCC2` and tell me its recorded pIC50 on Cyclin-dependent kinase 5/CDK5 activator 1 (Homo sapiens, UniProt Q00535).
6.57

Please look at `CC(=O)Nc1sc2c(c1Cc1nnc(SCC(=O)NNC(=O)CCl)n1NC(=O)c1ccc(Cl)cc1)CCCC2` and tell me its recorded pIC50 on Cyclin-dependent kinase 5/CDK5 activator 1 (Homo sapiens, UniProt Q00535).
6.59

Please look at `CC(=O)Nc1sc2c(c1CC(=O)NNC(=S)[S-])CCCC2.[K+]` and tell me its recorded pIC50 on Cyclin-dependent kinase 5/CDK5 activator 1 (Homo sapiens, UniProt Q00535).
6.46

All figures here come from ChEMBL document CHEMBL1795325.
